- Test system: LOX IMVI
- PROTOCOL NOTES: NCI tumour cell line growth inhibition, 48 h
The source made the active and inactive calls. Rule as the data show it: active = GI50 up to about 1.1 µM and inactive = higher.
Valid outcomes are listed here; reply with one: TRUE for active, FALSE for inactive

COP(=O)(OC)/C(=C/c1cn(C(C)=O)c2ccccc12)NC(C)=O :: FALSE
CCC(C)CCOC(=O)c1ccc(/N=C\c2ccc(/C=N/c3ccc(C(=O)OCCC(C)CC)cc3)cc2)cc1 (centres undefined) :: FALSE
CC1=C(C)C(=O)c2c(cc3ccc4ccccc4n23)C1=O :: FALSE
Cc1ccc(-c2c(C#N)c(-c3ccc(N(C)C)cc3)c(C#N)c(=O)n2NS(=O)(=O)c2ccccc2)cc1 :: FALSE
O=[N+]([O-])C(=C/c1ccccc1)/C(=C\c1ccccc1)[N+](=O)[O-] :: FALSE
C=CCNC(=S)N/C=C(\C#N)C(N)=O :: FALSE
CCCCN(CCCC)CCCn1cnc2ncccc2c1=O :: FALSE
Cc1cc(O)nc(NNC(C#N)c2ccc([N+](=O)[O-])cc2)n1 (centres undefined) :: FALSE
O=C(Sc1c(-c2ccccc2)c(=O)n(-c2ccccc2)c(=S)n1-c1ccccc1)c1ccc(Cl)cc1 :: FALSE
CN(C)CC1CCCC(CN(C)C)C1=NOC(=O)c1ccccc1 (centres undefined) :: FALSE

Assay outcome for N=C(N)NS(=O)(=O)c1ccc(NCc2c3ccccc3[n+]([O-])c3ccccc23)cc1 : what was it? FALSE

Source listed as ChEMBL document CHEMBL1201862.
